Ref: PubChem BioAssay AID1276

Test: activators of APP 5'UTR luciferase reporter, primary screen, SH-SY5Y cells (AID 1276)
Settings: SH-SY5Y APP 5'UTR luciferase reporter, luminescence; at 2 µM; stronger effect = higher value; zero percent = DMSO vehicle wells
In all, about 190,000 compounds went through this assay and about 2,000 (1.1%) were called active. This excerpt belongs to a sample that is enriched for actives.
activation values by entry
quantity_measured: activation (%)

| compound | quantity_measured | measurement_units | numeric_value |
| --- | --- | --- | --- |
| COc1ccc2nc(NC(=O)c3ccc(Br)s3)sc2c1 | activation | % | 136 |
| C/C(=N\Nc1nc2ccccc2[nH]1)c1cccs1 | activation | % | 150 |
| COCCNc1nc(N)c([N+](=O)[O-])c(NCCO)n1 | activation | % | -12.7 |
| O=C1C2C3C=CC(C3)C2C(=O)N1c1ccc(-c2nc3ccccc3c(=O)o2)cc1 (stereo unspecified) | activation | % | 3.88 |
| C/C(=N\Nc1ncc(Cl)cc1Cl)c1cccs1 | activation | % | 154 |
| COc1cccc(/C(C)=N/Nc2ncc(Cl)cc2Cl)c1 | activation | % | 24.9 |
| Nc1nc(NCCCN2CCOCC2)nc(Nc2ccccc2)c1[N+](=O)[O-] | activation | % | -12.2 |
| CNc1nc(Nc2ccc(C)c(Cl)c2)nc(N)c1[N+](=O)[O-] | activation | % | 153 |
| C/C(=N\Nc1ncc(Cl)cc1Cl)c1ccc(S(=O)(=O)NCc2ccco2)cc1 | activation | % | 100 |
| COCCSc1nnc(NC(=O)c2cc(OC)c(OC)cc2[N+](=O)[O-])s1 | activation | % | 5.07 |
| CCNc1nc(-c2cc3ccccc3o2)cs1 | activation | % | 188 |

---

Assay: activators of APP 5'UTR luciferase reporter, primary screen, SH-SY5Y cells (AID 1276)
Conditions: SH-SY5Y APP 5'UTR luciferase reporter, luminescence; at 2 µM; stronger effect = higher value; zero percent = DMSO vehicle wells
In all, about 190,000 compounds went through this assay and about 2,000 (1.1%) were called active. Only a selection was taken, and actives are over-represented in it overall.

| compound | activation, % |
| --- | --- |
| c1ccc(C2=Nc3cccc4cccc(c34)N2)cc1 | -8.18 |
| O=C(Cc1ccc(-c2ccccc2)cc1)NC(c1ccccc1)c1ccccc1 | 12.7 |
| CC(=O)n1cc([C@@H]2C=C(C(=O)N3CCN(Cc4ccc5c(c4)OCO5)CC3)O[C@H](OCc3ccc(CO)cc3)C2)c2ccccc21 | -22.2 |
| Cc1cccc(NC(=O)c2nnn(-c3cccc(C(F)(F)F)c3)c2N)c1 | 27.1 |
| COc1ccccc1N1CCN(c2ccc([N+](=O)[O-])nc2)CC1 | 0.38 |
| Cc1ccc(-n2cc3ccc([N+](=O)[O-])cc3n2)cc1 | 179 |
| Brc1ccc(C2CC(c3ccccc3)=Nc3ccccc3N2)cc1 (stereo unspecified) | 176 |
| CC(C)N1CCC(NC(=O)Nc2ccccc2)CC1 | 15.8 |
| CC(NC(=O)COC(=O)c1cc(=O)[nH]c2ccccc12)c1ccccc1 (stereo unspecified) | -4.94 |
| O=C(NNC(=S)NCc1ccco1)C(c1ccccc1)c1ccccc1 | 19.5 |
| Cc1ccc(-c2cn3cc([N+](=O)[O-])ccc3n2)cc1 | 120 |
